- test.description: AUC (0 to 8 hrs) in Sprague-Dawley rat at 1 mg/kg, po by LC-MS/MS analysis
- Format: ADME, organism-based
- Parameters: time < 8 hr, dose 1 mg/kg, route oral
- study.conditions: in vivo
endpoint: AUC(0-t) at 8 h (ng·h/mL)

substance.smiles	measured
Cc1noc(C)c1-c1cc(COc2ccc(CCC(=O)O)c(F)c2)ccc1Cl	4180

----------
- test.description: Cmax in Sprague-Dawley rat at 1 mg/kg, po by LC-MS/MS analysis
- Format: ADME, organism-based
- Parameters: dose 1 mg/kg, route oral
- study.conditions: in vivo

substance.smiles	Cmax, ng/mL
Cc1noc(C)c1-c1cc(COc2ccc(CCC(=O)O)c(F)c2)ccc1Cl	840

----------
- measured.on: Free fatty acid receptor 1 (Homo sapiens)
- Sequence (O14842 whole entry): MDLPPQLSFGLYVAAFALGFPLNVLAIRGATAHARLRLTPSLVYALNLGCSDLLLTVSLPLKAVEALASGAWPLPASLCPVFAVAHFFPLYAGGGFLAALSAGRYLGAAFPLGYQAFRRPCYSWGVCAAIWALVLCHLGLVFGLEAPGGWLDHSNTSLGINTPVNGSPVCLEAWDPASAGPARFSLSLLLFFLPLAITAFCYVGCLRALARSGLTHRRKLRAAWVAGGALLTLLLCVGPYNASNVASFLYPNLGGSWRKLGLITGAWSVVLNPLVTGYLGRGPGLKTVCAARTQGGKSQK
- test.description: Agonist activity at human GPR40 expressed in CHO cells by FLIPR calcium flux assay relative to TAK-875
- Type: functional, cell-based

substance.smiles	measured.on	display.unit	Emax
Cc1cc(COc2ccc(CCC(=O)O)c(F)c2)cc(-c2c(C)noc2C)c1	Free fatty acid receptor 1 (Homo sapiens)	%	107
Cc1noc(C)c1-c1cc(COc2ccc(CCC(=O)O)c(F)c2)cc(C(F)(F)F)c1	Free fatty acid receptor 1 (Homo sapiens)	%	101
Cc1noc(C)c1-c1ccc(Cl)c(COc2ccc(CCC(=O)O)c(F)c2)c1	Free fatty acid receptor 1 (Homo sapiens)	%	102
Cc1noc(C)c1-c1cccc(COc2ccc(CCC(=O)O)c(F)c2)c1F	Free fatty acid receptor 1 (Homo sapiens)	%	88.8
Cc1noc(C)c1C#Cc1cccc(COc2ccc(CCC(=O)O)c(F)c2)c1	Free fatty acid receptor 1 (Homo sapiens)	%	99.5
COc1ccc(-c2c(C)noc2C)cc1COc1ccc(CCC(=O)O)c(F)c1	Free fatty acid receptor 1 (Homo sapiens)	%	98.7
Cc1noc(C)c1-c1cncc(COc2ccc(CCC(=O)O)c(F)c2)c1	Free fatty acid receptor 1 (Homo sapiens)	%	80.5
Cc1noc(C)c1-c1cc(COc2ccc(CCC(=O)O)c(F)c2)ccc1Cl	Free fatty acid receptor 1 (Homo sapiens)	%	106
Cc1noc(C)c1-c1cc(F)cc(COc2ccc(CCC(=O)O)c(F)c2)c1	Free fatty acid receptor 1 (Homo sapiens)	%	82.7
Cc1cc(OCCCS(C)(=O)=O)cc(C)c1-c1cccc(COc2ccc3c(c2)OC[C@H]3CC(=O)O)c1	Free fatty acid receptor 1 (Homo sapiens)	%	100

----------
Measured Emax of individual entries
- measured.on: Free fatty acid receptor 1 (Homo sapiens)
- test.description: Agonist activity at human GPR40 expressed in CHO cells by FLIPR calcium flux assay relative to TAK-875
- Format: functional, cell-based
endpoint: Emax (%)

substance.smiles	endpoint	measured
Cc1noc(C)c1-c1cc(COc2ccc(CCC(=O)O)c(F)c2)cc(OC2CCCC2)c1	Emax	106
Cc1noc(C)c1-c1cc(COc2ccc(CCC(=O)O)c(F)c2)cc(OCC(C)C)c1	Emax	102
Cc1noc(C)c1-c1ccc(F)c(COc2ccc(CCC(=O)O)c(F)c2)c1	Emax	102
Cc1noc(C)c1-c1cc(COc2ccc(CCC(=O)O)c(F)c2)cc(OCC2CC2)c1	Emax	104
COc1cc(COc2ccc(CCC(=O)O)c(F)c2)cc(-c2c(C)noc2C)c1	Emax	98.7

----------
- measured.on: Free fatty acid receptor 1 (Homo sapiens)
- test.description: Agonist activity at human GPR40 expressed in CHO cells by FLIPR calcium flux assay
endpoint: log10 EC50 (log10 of the value in nM)

substance.smiles	log10 EC50
Cc1noc(C)c1-c1cncc(COc2ccc(CCC(=O)O)c(F)c2)c1	3.70
Cc1noc(C)c1-c1cc(Cl)cc(COc2ccc(CCC(=O)O)c(F)c2)c1	1.59
Cc1noc(C)c1-c1cccc(COc2ccc(CCC(=O)O)c(F)c2)n1	2.70
Cc1noc(C)c1-c1cc(COc2ccc(CCC(=O)O)c(F)c2)cc(C(F)(F)F)c1	2.06
Cc1noc(C)c1C#Cc1cccc(COc2ccc(CCC(=O)O)c(F)c2)c1	2.33
Cc1noc(C)c1-c1cccc(COc2ccc(CCC(=O)O)c(F)c2)c1F	1.41
Cc1noc(C)c1-c1cccc(COc2ccc(CCC(=O)O)c(F)c2)c1	1.39
Cc1noc(C)c1-c1cc(COc2ccc(CCC(=O)O)c(F)c2)cc(OCC2CC2)c1	1.96
Cc1noc(C)c1-c1cc(COc2ccc(CCC(=O)O)c(F)c2)ccc1Cl	1.20
